Entry source: patent US7868026B2

Target: CYP3A4 (Homo sapiens, UniProt P08684)
Sequence (P08684 whole entry): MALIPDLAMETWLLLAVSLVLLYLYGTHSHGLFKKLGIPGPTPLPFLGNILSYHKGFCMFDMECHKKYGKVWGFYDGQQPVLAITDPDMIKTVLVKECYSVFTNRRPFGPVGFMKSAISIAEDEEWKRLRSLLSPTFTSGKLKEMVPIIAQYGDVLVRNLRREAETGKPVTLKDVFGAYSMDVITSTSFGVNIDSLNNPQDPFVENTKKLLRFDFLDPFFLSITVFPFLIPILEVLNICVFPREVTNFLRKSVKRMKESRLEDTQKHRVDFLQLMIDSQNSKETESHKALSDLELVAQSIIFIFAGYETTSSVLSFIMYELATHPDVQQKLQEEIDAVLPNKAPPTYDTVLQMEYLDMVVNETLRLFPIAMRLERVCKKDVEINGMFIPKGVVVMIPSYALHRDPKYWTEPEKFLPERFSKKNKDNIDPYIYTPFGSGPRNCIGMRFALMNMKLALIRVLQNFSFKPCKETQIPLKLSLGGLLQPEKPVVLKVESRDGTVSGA
Assay: Determination of IC50 against CYP3A4 by measurement of inhibition of testosterone metabolism (human liver microsomes, 6-β-OH-testosterone by LC-MS/MS)
Assay type: biochemical
Design: 0.1 mg/mL human liver microsomes
Conditions: read-out: IC50 (Testo.)
measure name: IC50 (nM)

Below, 5 molecules whose answers are already recorded.
COc1cncc(NS(=O)(=O)c2ccc(F)cc2C(=O)NCCC(C)C)c1; 156
CCCCN(C)C(=O)c1ccccc1S(=O)(=O)Nc1cncc(OC)c1; 31
COCCN(C)C(=O)c1ccccc1S(=O)(=O)Nc1cncc(C)c1; 170
CCOc1ccncc1NS(=O)(=O)c1ccccc1C(=O)NCc1ccc(F)c(C(F)(F)F)c1; 7
CCOc1cncc(NS(=O)(=O)c2ccccc2C(=O)NCC2CC2)c1; 145

(I) COc1cncc(NS(=O)(=O)c2ccccc2C(=O)N(C)C(C)C)c1
(II) CCCCOCCCNC(=O)c1ccccc1S(=O)(=O)Nc1cccnc1
Ask: API: POST /compare with I and II ; response names the item with higher IC50. Selection: enter the item's label.
Reply: II
(II: 117 nM, I: 62 nM)

(a) CCOc1ccncc1NS(=O)(=O)c1ccccc1C(=O)NCCc1ccccc1C
(b) CCCN(C)C(=O)c1ccccc1S(=O)(=O)Nc1cncc(OC)c1
(c) COc1cncc(NS(=O)(=O)c2ccc(Cl)cc2C(=O)NCCC(C)C)c1
(d) COC1CCN(C(=O)c2ccccc2S(=O)(=O)Nc2cccnc2)CC1
Ask: Sort low-to-high on IC50, please. Answer by listing the labels in the order asked for.
Reply: a, b, c, d
(a: 13 nM, b: 63 nM, c: 231 nM, d: 691 nM)

(A) Cc1ccccc1CCNC(=O)c1ccccc1S(=O)(=O)Nc1cnccc1C
(B) CN(Cc1ccccc1)C(=O)c1ccccc1S(=O)(=O)Nc1cccnc1
(C) Cc1cncc(NS(=O)(=O)c2ccccc2C(=O)NCc2ccc(F)c(F)c2)c1
(D) Cc1ccccc1CCNC(=O)c1ccccc1S(=O)(=O)N(C)c1cccnc1
(E) Cc1ccncc1NS(=O)(=O)c1ccccc1C(=O)NCc1ccc(F)c(Cl)c1
Ask: Sort low-to-high on IC50, please. Answer by listing the labels in the order asked for.
Reply: C, A, E, B, D
(C: 8 nM, A: 12 nM, E: 18 nM, B: 54.5 nM, D: 84 nM)
